- Test system: 4T1
- protocol summary: % inhibition of 4T1 cell number vs DMSO control; higher = stronger growth inhibition
- protocol conditions: 1 µM; 3 days; substrate: Matrigel
Structures can show the parent of a compound that is named as a salt.
The following ranges of % inhibition of 4T1 cell number define the classes used here: lower = under 10%, middle = from 10% up to 40%, upper = 40% and over

[
  {
    "compound": "Cn1c(O)c(-c2[nH]c3ccccc3c2N=O)c2ccc(Br)cc21 [GSK-3 Inhibitor IX, Control, MeBIO]",
    "test target": "4T1",
    "assigned class": "lower"
  },
  {
    "compound": "O=C(O)c1ccc2c3c1cccc3c(=O)n1c3ccccc3nc21",
    "test target": "4T1",
    "assigned class": "middle"
  },
  {
    "compound": "Cc1ncc2ccccc2c1C#N",
    "test target": "4T1",
    "assigned class": "upper"
  },
  {
    "compound": "Cc1nc2cc3nc(-c4cccs4)cnc3cc2n1C",
    "test target": "4T1",
    "assigned class": "upper"
  },
  {
    "compound": "O=c1cc(N2CCOCC2)oc2c1ccc1ccccc12",
    "test target": "4T1",
    "assigned class": "lower"
  },
  {
    "compound": "O=S(=O)(NCCNC/C=C/c1ccc(Br)cc1)c1cccc2cnccc12 [H-89, Dihydrochloride]",
    "test target": "4T1",
    "assigned class": "lower"
  },
  {
    "compound": "O=C(Nc1cc(Cl)cc2c1[nH]c1cnccc12)c1cccnc1",
    "test target": "4T1",
    "assigned class": "upper"
  },
  {
    "compound": "Cn1c2ccccc2c2c3c(c4c5ccccc5n(CCC#N)c4c21)CNC3=O",
    "test target": "4T1",
    "assigned class": "upper"
  },
  {
    "compound": "Cc1ccc(S(=O)(=O)/C=C/C#N)cc1",
    "test target": "4T1",
    "assigned class": "middle"
  },
  {
    "compound": "Cn1cc(C2=C(c3cn(CCCSC(=N)N)c4ccccc34)C(=O)NC2=O)c2ccccc21",
    "test target": "4T1",
    "assigned class": "lower"
  }
]

* * *

- Tested on: 4T1
- protocol summary: % inhibition of 4T1 cell number vs DMSO control; higher = stronger growth inhibition
- protocol conditions: 1 µM; 3 days; substrate: lung fibroblast-derived matrix
Where a name gives a salt, the structure may show the parent alone.
Recorded % inhibition of 4T1 cell number by entry
readout type: % inhibition of 4T1 cell number (%)

[
  {
    "compound": "Cc1cncc2cccc(S(=O)(=O)N3CCCN(C(=O)CN)C[C@@H]3C)c12",
    "test target": "4T1",
    "units label": "%",
    "result number": 92.9
  },
  {
    "compound": "Cc1nc(-c2ccccc2)c(-c2ccncc2)o1",
    "test target": "4T1",
    "units label": "%",
    "result number": 14.6
  },
  {
    "compound": "COc1cc2ncc(-c3ccccc3)nc2cc1OC",
    "test target": "4T1",
    "units label": "%",
    "result number": -16.1
  },
  {
    "compound": "COc1cc2ncnc(Nc3cccc(O)c3)c2cc1OC [WHI-P180, Hydrochloride]",
    "test target": "4T1",
    "units label": "%",
    "result number": 9.03
  },
  {
    "compound": "Cn1nc2c3c(cccc31)C(=O)c1ccccc1-2 [JNK Inhibitor, Negative Control]",
    "test target": "4T1",
    "units label": "%",
    "result number": 0.304
  }
]

Sourced from the supplement of paper PMC8269313
